# SYSTEM NAME: T1, P3028 (VFDEFKPLVEEPQNLIK, SEQ ID NO: 185), His-tagged (human)
# T1 construct: Synthetic fragment of human serum albumin (positions 397-413); used in solution as His-tagged peptide PGE73; also called PGE73; not shown: His-tag
# T1 peptide: VFDEFKPLVEEPQNLIK
# MEASUREMENT NOTES: PEPSCAN ELISA; peptide on chip, His-P3028 added;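 note: peroxidase color development with ABTS and H2O2 substrate, OD405 imaged by CCD camera with image processing and taken as raw values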
Rule: RAMPO Score under 400 rampo units gives NO, otherwise YES.

[[record]]
binder = "KKLDTFFVKLSYFTER [KKLDTFFVKLSYFTER (SEQ ID NO: 475)]"
group_label = "NO"

[[record]]
binder = "KKLDTFFVKLSLTTER [KKLDTFFVKLSLTTER (SEQ ID NO: 373)]"
group_label = "YES"

[[record]]
binder = "KKLDTFFVKLSLFTEN [KKLDTFFVKLSLFTEN (SEQ ID NO: 390)]"
group_label = "NO"


Confirm if RAMPO Score reported for the binder KDLDTFFVKLSLFTER [KDLDTFFVKLSLFTER (SEQ ID NO: 461)] is 400 rampo units or above.
NO

Check this binder for RAMPO Score at or above 400 rampo units: KKLDTFFVKLSSFTER [KKLDTFFVKLSSFTER (SEQ ID NO: 357)]
YES

Item KKLHTFFVKLSLFTER [KKLHTFFVKLSLFTER (SEQ ID NO: 479)] with RAMPO Score of 400 rampo units or above?
NO
